target: T1, human serum albumin (human, UniProt P02768 25-609); experiment: SPR Biacore 3000, HSA on chip, pH 7.4
T1 construct: Immobilised on SPR chips; also added in solution to the cell assays; also called HSA; humanSA
MEASUREMENT_NAME: R0 pH7.4 (RU)
API: value field is a number in RU; no unit string.

Challenge: So what does the record say about R0 pH7.4 for TA-Fc-ABDEG-2H11-v15 (Fc fusion) DKTHTCPPCPAPELLGGPSVFLFPPKPKDTLYITREPEVTCVVVDVSHEDPEVKFNWYVDGVEVHNAKTKPREEQYNSTYRVVSVLTVLHQDWLNGKEYKCKVSNKALPAPIEKTISKAKGQPREPQVYTLPPSRDELTKNQVSLTCLVKGFYPSDIAVEWESNGQPENNYKTTPPVLDSDGSFFLYSKLTVDKSRWQQGNVFSCSVMHEALKFHYTQKSLSLSPGGGGGSGGGGSGGGGSGGGGSELQVVESGGGLVQAGGSLRLSCAASGRTFRSNTMGWFRQAPGKEREFVAAITWSGGTTYYADSVKGRFAISGDNAKNTVYLQMNSLKPEDTAVYYCAAEGPKWEPWNGIYHPAAFGSWGQGTQVTVSS ?
Response given: 0.635

Cited source: patent US20250382388A1
